The measured values listed here are drawn from ChEMBL document CHEMBL4219219.

Entries and their MIC
tested on: Staphylococcus aureus; test: Antistaphylococcal activity against gentamicin-resistant Staphylococcus aureus NRS-108 after 18 hrs by two-fold serial dilution method; type: functional; conditions: NRS-108, 18 h

{"compound": "Cc1ccc(S(=O)(=O)NCCO/N=C2\\C[C@H]3[C@](C)(C(=O)O)CCC[C@]3(C)c3cc(Br)c(C(C)C)cc32)cc1", "MIC": "1.56 to 3.13 µg/mL"}
{"compound": "CC(C)c1cc2c(cc1Br)[C@@]1(C)CCC[C@@](C)(C(=O)O)[C@@H]1C/C2=N\\OCCNS(=O)(=O)c1ccc(C(F)(F)F)cc1", "MIC": "0.78 to 1.56 µg/mL"}
{"compound": "CC(C)c1ccc2c(c1)CC[C@H]1[C@](C)(C(=O)O)CCC[C@]21C [DEHYDROABIETIC ACID]", "MIC": "12.5 to 25 µg/mL"}
{"compound": "CC(C)c1cc2c(cc1Br)[C@@]1(C)CCC[C@@](C)(C(=O)O)[C@@H]1C/C2=N\\OCCNS(=O)(=O)c1ccc(Br)s1", "MIC": "1.56 to 3.13 µg/mL"}
{"compound": "CC(C)c1cc2c(cc1Br)[C@@]1(C)CCC[C@@](C)(C(=O)O)[C@@H]1C/C2=N\\OCCNS(=O)(=O)c1cccc2cccnc12", "MIC": "3.13 to 6.25 µg/mL"}
{"compound": "CC(C)c1cc2c(cc1Br)[C@@]1(C)CCC[C@@](C)(C(=O)O)[C@@H]1C/C2=N\\OCCNS(=O)(=O)c1ccccc1Cl", "MIC": "1.56 to 3.13 µg/mL"}
{"compound": "CC(C)c1cc2c(cc1Br)[C@@]1(C)CCC[C@@](C)(C(=O)O)[C@@H]1C/C2=N\\OCCNS(=O)(=O)c1c(Cl)cccc1Cl", "MIC": "1.56 to 3.13 µg/mL"}
{"compound": "CN(C)[C@@H]1C(O)=C(C(N)=O)C(=O)[C@@]2(O)C(O)=C3C(=O)c4c(O)cccc4[C@@](C)(O)[C@H]3C[C@@H]12", "MIC": "< 0.2 µg/mL"}
{"compound": "CC(C)c1cc2c(cc1Br)[C@@]1(C)CCC[C@@](C)(C(=O)O)[C@@H]1C/C2=N\\OCCNS(=O)(=O)c1cccc(Cl)c1", "MIC": "1.56 to 3.13 µg/mL"}
{"compound": "CN[C@H](CC(C)C)C(=O)N[C@H]1C(=O)N[C@@H](CC(N)=O)C(=O)N[C@H]2C(=O)N[C@H]3C(=O)N[C@H](C(=O)N[C@H](C(=O)O)c4cc(O)cc(O)c4-c4cc3ccc4O)[C@H](O)c3ccc(c(Cl)c3)Oc3cc2cc(c3O[C@@H]2O[C@H](CO)[C@@H](O)[C@H](O)[C@H]2O[C@H]2C[C@](C)(N)[C@H](O)[C@H](C)O2)Oc2ccc(cc2Cl)[C@H]1O", "MIC": "0.39 to 0.78 µg/mL"}
{"compound": "CC(C)c1cc2c(cc1Br)[C@@]1(C)CCC[C@@](C)(C(=O)O)[C@@H]1C/C2=N\\OCCNS(=O)(=O)c1ccccc1", "MIC": "1.56 to 3.13 µg/mL"}
{"compound": "CC(C)c1cc2c(cc1Br)[C@@]1(C)CCC[C@@](C)(C(=O)O)[C@@H]1C/C2=N\\OCCNS(=O)(=O)c1ccc(Cl)c(C(F)(F)F)c1", "MIC": "0.78 to 1.56 µg/mL"}
{"compound": "Cc1ccc(C)c(S(=O)(=O)NCCO/N=C2\\C[C@H]3[C@](C)(C(=O)O)CCC[C@]3(C)c3cc(Br)c(C(C)C)cc32)c1", "MIC": "1.56 to 3.13 µg/mL"}
{"compound": "Cc1ccccc1S(=O)(=O)NCCO/N=C1\\C[C@H]2[C@](C)(C(=O)O)CCC[C@]2(C)c2cc(Br)c(C(C)C)cc21", "MIC": "1.56 to 3.13 µg/mL"}
{"compound": "CC(C)c1cc2c(cc1Br)[C@@]1(C)CCC[C@@](C)(C(=O)O)[C@@H]1C/C2=N\\OCCNS(=O)(=O)c1ccc(Cl)cc1Cl", "MIC": "0.78 to 1.56 µg/mL"}
{"compound": "CC(C)c1cc2c(cc1Br)[C@@]1(C)CCC[C@@](C)(C(=O)O)[C@@H]1C/C2=N\\OCCNS(=O)(=O)c1ccccc1Br", "MIC": "1.56 to 3.13 µg/mL"}
{"compound": "CC(C)c1cc2c(cc1Br)[C@@]1(C)CCC[C@@](C)(C(=O)O)[C@@H]1C/C2=N\\OCCNS(=O)(=O)c1ccccc1F", "MIC": "3.13 to 6.25 µg/mL"}
{"compound": "Cc1noc(C)c1S(=O)(=O)NCCO/N=C1\\C[C@H]2[C@](C)(C(=O)O)CCC[C@]2(C)c2cc(Br)c(C(C)C)cc21", "MIC": "1.56 to 3.13 µg/mL"}
{"compound": "CC(C)c1cc2c(cc1Br)[C@@]1(C)CCC[C@@](C)(C(=O)O)[C@@H]1C/C2=N\\OCCNS(=O)(=O)c1cccc(Br)c1", "MIC": "0.78 to 1.56 µg/mL"}
{"compound": "CC(C)c1cc2c(cc1Br)[C@@]1(C)CCC[C@@](C)(C(=O)O)[C@@H]1C/C2=N\\OCCNS(=O)(=O)c1ccc(Cl)s1", "MIC": "1.56 to 3.13 µg/mL"}
{"compound": "CC(C)c1cc2c(cc1Br)[C@@]1(C)CCC[C@@](C)(C(=O)O)[C@@H]1C/C2=N\\OCCNS(=O)(=O)c1cc(C(F)(F)F)cc(C(F)(F)F)c1", "MIC": "0.78 to 1.56 µg/mL"}
{"compound": "CC(C)c1cc2c(cc1Br)[C@@]1(C)CCC[C@@](C)(C(=O)O)[C@@H]1C/C2=N\\OCCNS(=O)(=O)c1ccc(Br)cc1", "MIC": "0.78 to 1.56 µg/mL"}
{"compound": "CC(C)c1cc2c(cc1Br)[C@@]1(C)CCC[C@@](C)(C(=O)O)[C@@H]1C/C2=N\\OCCNS(=O)(=O)c1ccc2ccccc2c1", "MIC": "1.56 to 3.13 µg/mL"}
{"compound": "CC(C)c1cc2c(cc1Br)[C@@]1(C)CCC[C@@](C)(C(=O)O)[C@@H]1C/C2=N\\OCCNS(=O)(=O)c1cccc(C(F)(F)F)c1", "MIC": "0.78 to 1.56 µg/mL"}
